Target: Potassium voltage-gated channel subfamily E member 1 (Homo sapiens) + Potassium voltage-gated channel subfamily KQT member 1 (Homo sapiens) (UniProt P15382+P51787)
Experiment: KCNQ1/KCNE1 channel inhibition, selectivity assay for KCNQ1 inhibitor project, CHO-K1 cells, thallium flux, FluxOR (AID 652147)
Details: FluxOR thallium flux fluorescence, at 10 µM
This is one part of the list. Calls of active or inactive are those of the source.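 How the source made its calls: active means mean percent inhibition of duplicate wells above the buffer-only control mean plus 3 SD of those controls; inactive means the rest.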
Outcomes: active, inactive

compound=CCn1c(C)c(C)c2cc(C(=O)N3CCN(c4cccc(C)c4C)CC3)ccc21 assigned_category=active
compound=CCSc1nsc(NC(=O)Nc2cccc(C(C)=O)c2)n1 assigned_category=inactive
compound=CCN(CC)CC(=O)Nc1sc2c(c1C(=O)c1ccccc1C)CCC2 assigned_category=active
compound="CC(C(=O)NCC1CCCCC1)N(C)Cc1cccc(Cl)c1 (stereo unspecified)" assigned_category=active
compound=COC(=O)c1cc(NC(=O)c2cc(C(C)(C)C)nn2Cc2cccc(C)c2)ccc1N1CCOCC1 assigned_category=active
compound=CCCc1cc(=S)n2c([nH]c3ccccc32)c1C#N assigned_category=inactive

###

Target: Potassium voltage-gated channel subfamily KQT member 2 (Rattus norvegicus)
Experiment: rat KCNQ2 channel potentiation, selectivity assay for KCNQ1 potentiator project, KCNQ2-CHO-K1 cells (AID 493009);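 further: assay conditions were tuned for KCNQ1 rather than KCNQ2 modulators; signal is max minus min fluorescence divided by baseline after thallium stimulus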
Conditions: FluxOR thallium flux fluorescence, at 10 µM, scaled: buffer 0, activator control 100
Active and inactive are the calls of the source.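 How the source made its calls: active means mean duplicate potentiation above the buffer control mean plus 5 SD of buffer wells; inactive means the rest.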
Outcome codes: y for active, n for inactive

smiles=C=CCn1sc(=N)c(C#N)c1N assigned_category=y
smiles=COCCCNc1nc2ccccc2nc1NS(=O)(=O)c1cccs1 assigned_category=n
smiles=O=C(C1CCN(Cc2ccccc2)CC1)N1CCN(C/C=C/c2ccccc2)CC1 assigned_category=n
smiles=Cc1cc(-c2csc3nc[nH]c(=S)c23)cc(C)c1C assigned_category=y
smiles=Cc1onc(-c2ccccc2)c1C(=O)NNC(=S)NC(=O)c1ccc(Cl)cc1Cl assigned_category=n
smiles=COC(=O)c1sc(-c2ccc(C(C)(C)C)cc2)cc1NC(=O)/C=C/C(=O)O assigned_category=y
smiles=CCCCOC(=O)Nc1ccccc1C(N)=O assigned_category=n
smiles=Cc1ccc(NC(=O)C(=O)NNC(=O)c2cccs2)cc1 assigned_category=y
smiles=CC1(C)CC(N=c2cc(-c3ccccc3)oc3ccc(Cl)cc23)CC(C)(C)N1 assigned_category=n
smiles=CC(C)c1ccc(/C=C2\SC(N3CCOCC3)=NC2=O)cc1 assigned_category=y
smiles=CCOC(=O)c1cnc(SCC(=O)Nc2nc(C)c(C)s2)nc1N assigned_category=n

###

Molecular target: Short transient receptor potential channel 6 (Mus musculus)
Test: mouse TRPC6 channel inhibitors, confirmation, HEK293 cells, membrane potential dye, duplicate (AID 488960)
Conditions: ACh-evoked depolarization, at 10 µM
The list shows a part of the results. The source made the active and inactive calls.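 Rule for the calls: active = fluorescence ratio falls more than 5 SD below the full-stimulation control mean, in both duplicate runs; inactive = the rest.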
Possible outcomes: active, inactive

compound=CCCC(=O)Nc1ccc(C(=O)NCCCn2ccnc2)cc1 assigned_category=inactive
compound=CC(C)c1ccc(NC(=O)Cn2ncc3ccccc32)cc1 assigned_category=inactive
compound=O=C(CN1CCCCCC1)N1c2ccccc2Sc2ccc(C(F)(F)F)cc21 assigned_category=active
compound="COc1ccc(C(=O)C2CCCN(Cc3cccn3-c3ccccn3)C2)c(C)c1 (stereo unspecified)" assigned_category=active
compound=Cc1nc(N=C(N)N)nc2c(C)cccc12 assigned_category=active
compound=COC(=O)c1ccccc1NC(=O)C1CCN(S(=O)(=O)c2cc(OC)ccc2OC)CC1 assigned_category=inactive
compound=O=C(Nc1cccc(Cl)c1)Nc1ccccc1NS(=O)(=O)c1cccs1 assigned_category=inactive
compound="OCCC1CN(Cc2ccc3nsnc3c2)CCN1C1CCCCC1 (stereo unspecified)" assigned_category=inactive
compound=Cc1ccc(NC(=S)N(CCCN2CCCC2)Cc2cccn2Cc2ccc(Cl)cc2)cc1 assigned_category=inactive
compound=Clc1ccc(-n2nnnc2-c2cnc(-c3ccccn3)nc2-c2cccs2)cc1 assigned_category=inactive
compound=COc1ccc(CC(=O)Nc2sc(Cc3ccccc3)c(C)c2C(N)=O)cc1 assigned_category=inactive

###

Molecular target: Potassium voltage-gated channel subfamily KQT member 2 (Rattus norvegicus) (UniProt O88943)
Sequence (O88943 whole entry, looked up): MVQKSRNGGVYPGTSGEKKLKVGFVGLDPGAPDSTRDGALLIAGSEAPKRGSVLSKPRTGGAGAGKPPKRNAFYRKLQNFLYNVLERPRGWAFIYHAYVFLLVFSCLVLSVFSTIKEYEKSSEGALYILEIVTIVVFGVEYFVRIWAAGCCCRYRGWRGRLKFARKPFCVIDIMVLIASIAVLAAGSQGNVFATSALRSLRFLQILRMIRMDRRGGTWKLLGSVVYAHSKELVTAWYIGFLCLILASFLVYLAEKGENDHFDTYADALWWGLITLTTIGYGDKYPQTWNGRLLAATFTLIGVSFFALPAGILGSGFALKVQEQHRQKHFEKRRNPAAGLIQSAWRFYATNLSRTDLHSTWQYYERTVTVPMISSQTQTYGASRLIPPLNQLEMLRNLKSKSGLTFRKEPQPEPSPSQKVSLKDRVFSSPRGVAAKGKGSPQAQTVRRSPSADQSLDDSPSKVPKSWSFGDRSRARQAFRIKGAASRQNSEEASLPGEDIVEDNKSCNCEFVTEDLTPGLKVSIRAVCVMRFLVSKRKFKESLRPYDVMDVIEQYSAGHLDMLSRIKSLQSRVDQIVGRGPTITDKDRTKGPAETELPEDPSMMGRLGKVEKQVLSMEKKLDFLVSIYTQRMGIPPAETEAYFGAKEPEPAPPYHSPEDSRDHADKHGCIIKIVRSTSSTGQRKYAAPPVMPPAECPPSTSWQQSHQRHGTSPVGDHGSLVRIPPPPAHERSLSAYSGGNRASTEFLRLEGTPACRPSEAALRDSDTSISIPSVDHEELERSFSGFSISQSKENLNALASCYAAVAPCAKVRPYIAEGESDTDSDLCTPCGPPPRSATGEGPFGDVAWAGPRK
Experiment: rat KCNQ2 channel potentiation, selectivity assay for KCNQ1 potentiator project, KCNQ2-CHO-K1 cells (AID 493009);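 further: assay conditions were tuned for KCNQ1 rather than KCNQ2 modulators; signal is max minus min fluorescence divided by baseline after thallium stimulus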
Details: FluxOR thallium flux fluorescence, at 10 µM, scaled: buffer 0, activator control 100
Active and inactive are the calls of the source.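 The calls were made as follows: active = mean duplicate potentiation above the buffer control mean plus 5 SD of buffer wells; inactive = the rest.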
Outcome codes: y (active), n (inactive)

compound=S=c1sc2c(Cl)ncnc2n1-c1ccccc1 assigned_category=y
compound=O=C(CCN1CCCCCC1)Nc1ccc(F)cc1 assigned_category=n
compound=CCN(CC)c1ccc(Nc2cc3n(c(=O)n2)CCc2cc(OC)c(OC)cc2-3)cc1 assigned_category=n
compound=O=C(NC(=S)N1CCc2ccccc21)c1ccccc1 assigned_category=y
compound=O=C(Nc1nnc(-c2ccc(F)cc2)o1)c1cc(Cl)sc1Cl assigned_category=y
compound=C/C(=N\Nc1nc2ccccc2[nH]1)c1ccc(Cl)s1 assigned_category=y
compound=Cc1onc(-c2ccccc2)c1C(=O)NNC(=S)NC(=O)c1ccc(Br)cc1 assigned_category=n
compound=CCCS(=O)(=O)c1c(S(=O)(=O)CCC)c2c(C(N)=O)cccn2c1C(=O)c1ccc(F)cc1 assigned_category=n
compound=Cc1ccc(Cl)cc1N1CCN(C(=O)c2ccc(CN3CCOCC3)cc2)CC1 assigned_category=n
compound=CC(=O)/C(=N/Nc1ccc([N+](=O)[O-])cc1)N1CCCc2ccccc21 assigned_category=n
compound=COc1cc(CNCc2ccccn2)ccc1OCc1ccc(Cl)cc1 assigned_category=n
compound=Cc1ccc(-n2c(C)cc(/C=N/NC(=O)c3ccncc3)c2C)c(C)c1 assigned_category=n
compound=CCOC(=O)Cc1csc(NC(=S)NC(=O)c2ccc(F)cc2)n1 assigned_category=n
compound=CCOC(=O)c1c(-c2ccc(C)o2)csc1NC(=S)NC(=O)N(C)C assigned_category=y
compound=CCn1c(SCC(=O)c2cccs2)nnc1-c1cccs1 assigned_category=n
compound="CCC1(c2ccccc2)NC(=O)N(CC(=O)Nc2ccccc2C(=O)N2CCCCC2)C1=O (stereo unspecified)" assigned_category=n
compound=S=c1[nH]nc(-c2ccco2)n1/N=C/c1ccc(Cl)cc1Cl assigned_category=y
compound=CCc1ccc2[nH]c(C(=O)Nc3ccc(F)cc3Br)cc2c1 assigned_category=n
compound=Cc1cc(C(=O)CCl)c(C)n1-c1cccc([N+](=O)[O-])c1 assigned_category=n
compound=OC[C@H]1O[C@H](OC[C@H]2O[C@H](OC[C@H]3O[C@H](O[C@]4(CO)O[C@H](CO)[C@@H](O)[C@@H]4O)[C@H](O)[C@@H](O)[C@@H]3O)[C@H](O)[C@@H](O)[C@H]2O)[C@H](O)[C@@H](O)[C@H]1O assigned_category=n
compound="COC(=O)c1c(N2C(=O)CC(Sc3ncccc3C(=O)O)C2=O)sc(C)c1C (stereo unspecified)" assigned_category=n

###

Molecular target: Potassium voltage-gated channel subfamily KQT member 1 (Homo sapiens) (UniProt P51787)
Sequence (P51787 whole entry, looked up): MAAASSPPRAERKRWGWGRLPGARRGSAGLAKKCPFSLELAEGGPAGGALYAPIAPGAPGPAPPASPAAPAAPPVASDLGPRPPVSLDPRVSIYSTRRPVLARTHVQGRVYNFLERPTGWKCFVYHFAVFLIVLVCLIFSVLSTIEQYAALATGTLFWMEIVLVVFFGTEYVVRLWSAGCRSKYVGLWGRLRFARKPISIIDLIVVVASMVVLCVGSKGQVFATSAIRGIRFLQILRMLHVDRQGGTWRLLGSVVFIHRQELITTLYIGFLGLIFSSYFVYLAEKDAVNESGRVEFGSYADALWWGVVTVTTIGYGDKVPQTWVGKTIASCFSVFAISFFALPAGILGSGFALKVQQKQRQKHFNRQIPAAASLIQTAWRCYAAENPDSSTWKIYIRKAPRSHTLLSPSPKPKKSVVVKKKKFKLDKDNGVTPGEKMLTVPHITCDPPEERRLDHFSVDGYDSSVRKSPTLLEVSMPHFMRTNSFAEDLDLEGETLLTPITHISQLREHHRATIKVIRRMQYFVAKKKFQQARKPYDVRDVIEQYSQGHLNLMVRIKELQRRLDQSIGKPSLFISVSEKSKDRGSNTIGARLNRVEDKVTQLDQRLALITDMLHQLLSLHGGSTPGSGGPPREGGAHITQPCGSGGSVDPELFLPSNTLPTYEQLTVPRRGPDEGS
Assay: KCNQ1 channel current potentiators, confirmation, orthogonal assay for KCNQ1 potentiator project, IonWorks patch clamp, KCNQ1-CHO cells (AID 493184)
Settings: automated patch clamp current, at 10 µM; hits give high values
Active and inactive are the calls of the source.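 The calls were made as follows: active = current rise at least 3 SD above the untreated control mean in each of two repeat wells; inactive = the rest.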
quantity: current potentiation

compound=C#CCNc1cc(-c2ccccc2)nc2ncnn12 quantity="current potentiation" measured_result=inactive
compound=O=C(Nc1nc(=O)c2ccccc2s1)c1ccc(F)cc1 quantity="current potentiation" measured_result=inactive
compound=COc1cc(OC)cc(C(=O)NC(=S)N2CCCCCC2)c1 quantity="current potentiation" measured_result=inactive
compound=O=C(COc1ccc2ccccc2c1)NNC(=O)[C@@H]1CCCC[C@@H]1C(=O)O quantity="current potentiation" measured_result=inactive
compound=CCOC(=O)NC(=S)Nc1ccc(C(C)(C)C)cc1Br quantity="current potentiation" measured_result=inactive
compound=CCOC(=O)CSC(=S)NC(=O)c1ccc(OC)cc1 quantity="current potentiation" measured_result=inactive
compound=CCc1ccc2[nH]c(O)c(N=Nc3nc(-c4ccccc4)cs3)c2c1 quantity="current potentiation" measured_result=inactive
compound=COc1cnc(-c2ccccn2)nc1Oc1ccccc1Cl quantity="current potentiation" measured_result=inactive
compound=O=C(NC(=S)Nc1ccccc1)c1csnn1 quantity="current potentiation" measured_result=inactive
compound=Cc1ccc(N=Nc2ccc(O)c3ncccc23)cc1 quantity="current potentiation" measured_result=inactive
compound="CCC(C)c1ccccc1OCCCNC1CCCC1 (configuration not stated)" quantity="current potentiation" measured_result=inactive
compound="CC1Oc2ccccc2N(CC(=O)N2CCCCCC2)C1=O (configuration not stated)" quantity="current potentiation" measured_result=inactive

###

Target: Potassium voltage-gated channel subfamily KQT member 1 (Homo sapiens) (UniProt P51787)
Assay: KCNQ1 potassium channel potentiators, confirmation, FluxOR thallium flux, CHO cells, duplicates (AID 493007)
Conditions: KCNQ1 cell line, FluxOR thallium flux fluorescence, at 10 µM, % of reference activator effect, buffer zero
Activity calls are given as the source filed them.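 The calls were made as follows: active = potentiation averaged over duplicate wells exceeding buffer-only control mean by more than 3 SD; inactive = the rest.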
Outcomes: yes (active), no (inactive)

compound=COc1ccc(NC(=S)N2CCC(C(O)(c3ccccc3)c3ccccc3)CC2)cc1 assigned_category=no
compound=COc1cccc(C(=O)NNC(=O)C(=O)Nc2ccc(C)c(Cl)c2)c1 assigned_category=yes
compound=Cc1[nH]n(-c2ccc(Cl)cc2)c(=O)c1/C=N/c1nnc(-c2ccccc2)s1 assigned_category=yes
compound=Cc1c(-c2nc(-c3ccncc3)no2)cccc1[N+](=O)[O-] assigned_category=yes
compound=CC(C)NC(=O)C1(S(=O)(=O)c2ccccc2)CC=CC1 assigned_category=no
compound=Cc1cc(C)c(S(=O)(=O)Nc2cccc3nsnc23)c(C)c1 assigned_category=no
compound=CCCc1cc(=O)[nH]c(SCC(=O)Nc2ccc(Br)cc2Br)n1 assigned_category=no
compound=Cn1cccc1/C=N/n1c(-c2ccc(C(C)(C)C)cc2)n[nH]c1=S assigned_category=yes
compound=O=C(C1CCN(Cc2ccccc2)CC1)N1CCN(C/C=C/c2ccccc2)CC1 assigned_category=no
compound="CCOC(=O)C1CCCN(C(=O)C2CCN(S(=O)(=O)c3ccc4ccccc4c3)CC2)C1 (stereo not given)" assigned_category=no

The measurements presented in this section are drawn from PubChem BioAssay.
